# Test system: K-562 leukemia
# TEST METHOD NOTES: NCI tumour cell line growth inhibition, 48 h

MOLECULE: COc1cc(Nc2nc3ccccc3nc2C(C)C)cc(OC)c1OC
TGI: > 100 µM

MOLECULE: COc1cc2ccc(CC(N)=O)cc2cc1OC
TGI: > 100 µM

MOLECULE: O=C1CCCN1CCCN=c1cc2n(-c3ccc(Cl)cc3)c3ccccc3nc-2cc1Nc1ccc(Cl)cc1
TGI: 30 µM

MOLECULE: CCCCN1C(=O)CS/C1=N/Nc1nc2c([nH]1)c(=O)n(C)c(=O)n2C
TGI: > 100 µM

MOLECULE: O=C(Sc1sc(=S)sc1SC(=O)c1ccccc1)c1ccccc1
TGI: > 100 µM

MOLECULE: Cc1ccc(C)c2c(N=Nc3ccccc3[N+](=O)[O-])c(O)[nH]c12
TGI: > 100 µM

MOLECULE: O=c1c2c3c(sc2nc2n1N=C(c1ccc([N+](=O)[O-])cc1)CS2)CCCC3
TGI: > 100 µM

MOLECULE: O=C1C=C2CC[C@H]3[C@@H]4CC[C@H](Oc5c6ccccc6nc6ccccc56)[C@H]4CC[C@@H]3[C@H]2CC1
TGI: > 100 µM

MOLECULE: COc1ccc(/C=C(/c2ccccc2)c2c(C)cc(C)c(/C(=C\c3ccc(OC)cc3)c3ccccc3)c2N=Nc2cc(C)cc(C)c2)cc1
TGI: > 100 µM

MOLECULE: Cc1cc(NS(=O)(=O)c2ccc(NC(=O)COC(=O)c3cccc4c(=O)c5ccccc5[nH]c34)cc2)no1
TGI: > 100 µM

MOLECULE: Cc1ccc([N+](=O)[O-])cc1S(=O)(=O)Nc1ccc(C2=NN(S(=O)(=O)c3cc([N+](=O)[O-])ccc3C)C(c3ccco3)C2)cc1 (centres undefined)
TGI: > 100 µM

MOLECULE: Nc1nc(-c2cc(-c3cccc4ccccc34)nc(N)n2)cc(-c2cccc3ccccc23)n1
TGI: > 100 µM

MOLECULE: CCN(CC)CCNC(=O)c1nn(-c2ccc(Cl)cc2)c2c1CCc1cc(OC)ccc1-2
TGI: 11.1 µM

MOLECULE: COc1ccc2[nH]c(O)c(/C=c3/ccc4c(c3)N=C(c3ccc(F)cc3)N=4)c2c1
TGI: > 100 µM

MOLECULE: COc1ccc(Oc2cc(NCCC(F)(F)F)c3ncc(-c4ccc(C(=O)NC5CC5)c(C)c4)n3n2)c(F)c1F
TGI: > 100 µM

MOLECULE: Oc1ccccc1C=Nc1ccccc1N=Cc1ccccc1O.[Cu+2]
TGI: > 100 µM

MOLECULE: COc1ccc(-c2nc3c(nc2-c2ccc(OC)cc2)N(C)S(=O)(=O)N=C3N)cc1
TGI: > 100 µM

MOLECULE: Cc1cc(S(N)(=O)=O)c(S/C(=N\Nc2ccc([N+](=O)[O-])cc2)c2ccc3ccccc3c2)cc1Cl
TGI: > 100 µM

MOLECULE: Oc1c2c(c(O)c3ccccc13)C1(N=N2)c2ccccc2Oc2ccccc21
TGI: > 100 µM

MOLECULE: Cc1c(N=NN(C)C)cc[n+]([O-])c1C
TGI: > 100 µM

MOLECULE: COC(=O)c1ccc(C)cc1CC1Cc2c(C)cccc2C1=O (centres undefined)
TGI: > 34.4 µM

MOLECULE: Brc1ccc(C2SCc3nc4ccccc4n32)cc1 (centres undefined)
TGI: > 100 µM

MOLECULE: NC(N)=NS(=O)(=O)c1ccc(NC(=O)c2ccc3nc4ccccc4c(N)c3c2)cc1
TGI: > 100 µM

MOLECULE: CC(=O)c1ccc2c(c1)N(CCCN(C)C)c1ccccc1S2
TGI: 83.7 µM

MOLECULE: CC(=O)OC1[C@H](n2ccnc2)C[C@H]2[C@@H]3CC=C4CC(N5CCCC5)CC[C@]4(C)[C@H]3CC[C@]12C (some centres undefined)
TGI: > 100 µM

MOLECULE: O=c1[nH]c(=O)n2n1C1C=CC2CC1
TGI: > 100 µM

MOLECULE: CS/C=C\C(=O)O[C@H]1C[C@@H]2[C@@H](O)c3occ(C)c3C[C@]2(C)[C@@H](C)C1
TGI: 47 µM

MOLECULE: N=C(N)SCc1ccc(N=C=S)cc1
TGI: 44 µM

MOLECULE: O=C1CCCC[C@H]1C(O)CC1CC(=O)N(c2ccccc2)C(=O)C1 (some centres undefined)
TGI: > 100 µM

MOLECULE: CC12CC(Sc3ccccc3N1)c1ccccc1O2 (centres undefined)
TGI: 40.2 µM

MOLECULE: CCOP(C)(=O)/C(Cc1ccc(OC)c(OC)c1)=N\O (centres undefined)
TGI: > 100 µM

MOLECULE: C=CCN1C[C@@H](C)N([C@@H](c2ccc(C(=O)N(CC)CC)cc2)c2cccc(OC)c2)C[C@@H]1C
TGI: > 100 µM

MOLECULE: C[C@]12CCc3sc(-c4cccc(F)c4)nc3C1=CC[C@@H]1[C@@H]2CC[C@]2(C)C(=O)CC[C@@H]12
TGI: 9.08 µM

MOLECULE: CSc1ccc2c(cc1=O)[C@@H](NC(=O)c1ccc([N+](=O)[O-])cc1)CCc1cc(O)c(O)c(O)c1-2
TGI: > 100 µM

MOLECULE: COc1ccc(-c2nnc(Nc3nc(O)c(C4=c5cc(F)ccc5=NC4=O)s3)o2)cc1
TGI: > 100 µM

MOLECULE: CCN(CC)CC(=O)Nc1ccc2c(c1)C(=O)c1ccc(NC(=O)CN(CC)CC)cc1C2=O
TGI: 67.8 µM

MOLECULE: CCCCN1CCN(c2ccc3nc(-c4ccc5nc(-c6ccc(OCC)c(OCC)c6)[nH]c5c4)[nH]c3c2)CC1
TGI: 2.27 µM

MOLECULE: N#C/C(=C\c1cccc2cnccc12)N1N=NC2C=CC=CC21 (centres undefined)
TGI: > 100 µM

MOLECULE: Cc1cc2c(=O)[nH]c(N)nc2nc1C
TGI: > 100 µM

* * *

# System: HCT-116 colon
# TEST METHOD NOTES: NCI tumour cell line growth inhibition, 48 h
Respond with Y for TGI values of 20 µM and above, N for values below.

COMPOUND: COc1cc(Nc2nc3ccccc3nc2C(C)C)cc(OC)c1OC
CLASS ASSIGNMENT: Y
//
COMPOUND: Clc1cccc2c1OCC1C(c3ccccc3)=NN(c3ccccc3)C21 (stereo not given)
CLASS ASSIGNMENT: Y
//
COMPOUND: Cc1nc2cccc([N+](=O)[O-])c2n1CCCN(C)C
CLASS ASSIGNMENT: Y
//
COMPOUND: COC(=O)C1=COc2c(n(C)c3ccccc23)-c2ccccc21
CLASS ASSIGNMENT: Y
//
COMPOUND: CC(=O)c1ccc2c(c1)N(CCCN(C)C)c1ccccc1S2
CLASS ASSIGNMENT: Y
//
COMPOUND: O=C1c2c(c3c4ccccc4[nH]c3c3[nH]c4ccccc4c23)C(=O)N1Cc1ccccc1
CLASS ASSIGNMENT: N
//
COMPOUND: CS/C=C\C(=O)O[C@H]1C[C@@H]2[C@@H](O)c3occ(C)c3C[C@]2(C)[C@@H](C)C1
CLASS ASSIGNMENT: Y
//
COMPOUND: Cn1c(C(C)(C)OC(=O)Oc2ccccc2)cnc1[N+](=O)[O-]
CLASS ASSIGNMENT: Y
//
COMPOUND: CC(=O)OCCOCCN1CCN(c2c(O)c3c(c(O)c2Cl)C(=O)C=CC3=O)CC1
CLASS ASSIGNMENT: N
//
COMPOUND: COC(=O)/C(=C\c1c(-c2ccccc2)[nH]c2ccccc12)S(C)(=O)=O
CLASS ASSIGNMENT: Y

* * *

# System: OVCAR-5 ovarian
# TEST METHOD NOTES: NCI tumour cell line growth inhibition, 48 h
As shown below, each of these compounds has a reported TGI value.

COMPOUND: Clc1ccc(C2=NOC3C4CCC(C4)C23)cc1 (stereo unspecified)
TGI: > 100 µM
--
COMPOUND: CC(C)(SCc1ccccc1)C(N)C(=O)O (stereo unspecified)
TGI: > 100 µM
--
COMPOUND: Nc1c2c(nc3ccccc13)CCCc1ccccc1-2
TGI: 34.6 µM
--
COMPOUND: COc1cc(Nc2nc3ccccc3nc2C(C)C)cc(OC)c1OC
TGI: > 100 µM
--
COMPOUND: Cc1ccc(S(=O)(=O)N2CCCSCCN(S(=O)(=O)c3ccc(C)cc3)CCCSCC2)cc1
TGI: > 100 µM
--
COMPOUND: O=S(=O)(O)c1ccccc1N=Nc1ccc(N=Nc2c(O)ccc3ccccc23)c(S(=O)(=O)O)c1
TGI: > 100 µM
--
COMPOUND: NC(=O)C1CCCN1C(=O)N(CCCl)N=O (stereo unspecified)
TGI: > 100 µM
--
COMPOUND: CN(C)/C=C/c1c2c(nc3ccccc13)C(=O)c1ccccc1C2=O
TGI: 8.45 µM
--
COMPOUND: CCN(CC)CCC(=O)/C=C/c1ccc(C)cc1
TGI: 32.6 µM
--
COMPOUND: O=C(COc1ccc(-c2nc3cc(Cl)c(Cl)cc3[nH]2)cc1)N=Nc1c(O)[nH]c2ccccc12
TGI: > 100 µM
--
COMPOUND: O=C1c2c(c3c4ccccc4[nH]c3c3[nH]c4ccccc4c23)C(=O)N1Cc1ccccc1
TGI: 7.61 µM
